test system: Mus musculus; test: Toxicity found after a single intramuscular injection in mice; conditions: in vivo, im
Hi there, I'd appreciate the recorded Toxicity for every entry that follows.
Reply numerically in µM/kg, unit not repeated.

Exercise: For the compound CCCC(=O)N[C@H]1CCc2cc(OC)c(OC)c(OC)c2-c2ccc(OC)c(=O)cc21 , what Toxicity is on record?
Key: 5.8

Exercise: For COc1c2c(cc3c1-c1ccc(OC)c(=O)cc1[C@@H](NC(C)=O)CC3)OCO2 then?
Key: 9.7

Exercise: For COc1cc2c(c(OC)c1OC)-c1ccc(OC)c(=O)cc1[C@@H](N(C)C(=O)CO)CC2 then?
Key: 14.5

Exercise: For COc1cc2c(c(OC)c1O)-c1ccc(OC)c(=O)cc1[C@@H](NC(=O)C(F)(F)F)CC2 then?
Key: 32.5

Exercise: For COc1cc2c(c(OC)c1OC)-c1ccc(OC)c(=O)cc1[C@@H](NC(=O)CO)CC2 [COLCHIFOLINE] then?
Key: 3.9

Exercise: For CCC(=O)N[C@H]1CCc2cc(OC)c(OC)c(OC)c2-c2ccc(OC)c(=O)cc21 then?
Key: 8.2

Exercise: For CCOCC(=O)N[C@H]1CCc2cc(OC)c(OC)c(OC)c2-c2ccc(OC)c(=O)cc21 then?
Key: 9

Exercise: For COc1cc2c(c(OC)c1OC)-c1ccc(OC)c(=O)cc1[C@@H](NC(=O)c1ccccc1)CC2 then?
Key: 60.5

Exercise: For COc1cc2c(c(OC)c1OC)-c1ccc(OC)c(=O)cc1[C@@H](NC(=O)C(C)(C)C)CC2 then?
Key: 9.3

Exercise: For COc1cc2c(c(OC)c1OC)-c1ccc(OC)c(=O)cc1[C@@H](NC(C)=O)CC2 [COLCHICINE] then?
Key: 3

Exercise: For COc1cc2c(c(OC)c1OC)-c1ccc(OC)c(=O)cc1[C@@H](NC(=O)COc1ccccc1)CC2 then?
Key: 61.3

Exercise: For COc1cc2c(c(OC)c1OC)-c1cccc(=O)cc1[C@@H](NC(C)=O)CC2 [CHOLCHICIDE] then?
Key: 168.9
